assay: in vitro; settings: human;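 further: MTT reduction read as absorbance at 595 nm, blank-corrected and expressed as percent growth relative to the time-zero cell reading, triplicate wells per concentration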
Bridge positions count the residues as written; N and C are the ends. Square brackets hold non-standard residues; d marks the D form. Peptide text beside a SMILES is read from it. 2Nal = N[C@@H](Cc1ccc2ccccc2c1)C(=O)O; Cit = NC(=O)NCCC[C@H](N)C(=O)O; Dap = NC[C@H](N)C(=O)O
Each entry below carries its recorded GI50 at 48 h.
readout-type: GI50 at 48 h (µM)

molecule	value-measured
C[C@@H](O)[C@@H]1NC(=O)[C@H](CCCNC(=N)N)NC(=O)[C@H](Cc2ccc(O)cc2)NC(=O)[C@@H]2CCCN2C(=O)[C@H]2CCCN2C(=O)[C@H](CCCCN)NC(=O)[C@H](CCCNC(N)=O)NC(=O)[C@H](Cc2ccc(O)cc2)NC(=O)[C@@H]2CSSC[C@H](NC1=O)C(=O)N[C@@H](CCCNC(=N)N)C(=O)NCC(=O)N1CCC[C@@H]1C(=O)N[C@@H](CCCNC(=N)N)C(=O)N[C@@H](CCCNC(=N)N)C(=O)N[C@@H](Cc1ccc3ccccc3c1)C(=O)N2 [Ex. 131] (cyclo(YRTCRG[dP]RR[2Nal]CY[Cit]K[dP]P); disulfide 4-11)	53
N=C(N)NCCC[C@@H]1NC(=O)[C@@H]2CSSC[C@H](NC(=O)[C@H](Cc3c[nH]c4ccccc34)NC(=O)[C@H](CCCNC(=N)N)NC(=O)[C@H](CCCNC(=N)N)NC(=O)[C@H]3CCCN3C(=O)CNC1=O)C(=O)N[C@@H](Cc1ccc(O)cc1)C(=O)N[C@@H](CCCNC(N)=O)C(=O)N[C@@H](CCCCN)C(=O)N1CCC[C@@H]1C(=O)N1CCC[C@H]1C(=O)N[C@@H](Cc1ccccc1)C(=O)N[C@@H](CCCNC(=N)N)C(=O)N[C@@H](CCCNC(N)=O)C(=O)N2 [Ex. 107] (cyclo(FR[Cit]CRG[dP]RRWCY[Cit]K[dP]P); disulfide 4-11)	50
CC[C@H](C)[C@@H]1NC(=O)[C@@H]2CCCN2C(=O)[C@H]2CCCN2C(=O)[C@H](CCCCN)NC(=O)[C@H](CCC(N)=O)NC(=O)[C@H](Cc2ccc(O)cc2)NC(=O)[C@@H]2CSSC[C@H](NC(=O)[C@H](CCCNC(N)=O)NC(=O)[C@H](CCCNC(=N)N)NC1=O)C(=O)N[C@@H](CCCNC(=N)N)C(=O)NCC(=O)N1CCC[C@@H]1C(=O)N[C@@H](CCCNC(=N)N)C(=O)N[C@@H](CCCNC(=N)N)C(=O)N[C@@H](Cc1ccc3ccccc3c1)C(=O)N2 [Ex. 65] (cyclo(IR[Cit]CRG[dP]RR[2Nal]CYQK[dP]P); disulfide 4-11)	65
N=C(N)NCCC[C@@H]1NC(=O)[C@@H]2CSSC[C@H](NC(=O)[C@H](Cc3ccc4ccccc4c3)NC(=O)[C@H](CCCNC(=N)N)NC(=O)[C@H](CN)NC(=O)[C@H]3CCCN3C(=O)CNC1=O)C(=O)N[C@@H](Cc1ccc(O)cc1)C(=O)N[C@@H](CCCNC(N)=O)C(=O)N[C@@H](CCCCN)C(=O)N1CCC[C@@H]1C(=O)N1CCC[C@H]1C(=O)N[C@@H](Cc1ccc(O)cc1)C(=O)N[C@@H](CCCNC(=N)N)C(=O)N[C@@H](CCCNC(N)=O)C(=O)N2 [Ex. 135] (cyclo(YR[Cit]CRG[dP][Dap]R[2Nal]CY[Cit]K[dP]P); disulfide 4-11)	30
N=C(N)NCCC[C@@H]1NC(=O)[C@@H]2CSSC[C@H](NC(=O)[C@H](Cc3ccc4ccccc4c3)NC(=O)[C@H](CCCNC(=N)N)NC(=O)[C@H](CCCNC(=N)N)NC(=O)[C@H]3CCCN3C(=O)CNC1=O)C(=O)N[C@@H](Cc1ccc(O)cc1)C(=O)N[C@@H](CCC(N)=O)C(=O)N[C@@H](CCCCN)C(=O)N1CCC[C@@H]1C(=O)N1CCC[C@H]1C(=O)N[C@@H](CCC(N)=O)C(=O)N[C@@H](CCCNC(=N)N)C(=O)N[C@@H](CCCNC(N)=O)C(=O)N2 [Ex. 62] (cyclo(QR[Cit]CRG[dP]RR[2Nal]CYQK[dP]P); disulfide 4-11)	65
N=C(N)NCCC[C@@H]1NC(=O)[C@@H]2CSSC[C@H](NC(=O)[C@H](Cc3ccc4ccccc4c3)NC(=O)[C@H](CCCNC(=N)N)NC(=O)[C@H](CCCNC(=N)N)NC(=O)[C@H]3CCCN3C(=O)CNC1=O)C(=O)N[C@@H](Cc1ccc(O)cc1)C(=O)N[C@@H](CCCNC(=N)N)C(=O)N[C@@H](CCCCN)C(=O)N1CCC[C@@H]1C(=O)N1CCC[C@H]1C(=O)N[C@@H](Cc1ccc(O)cc1)C(=O)N[C@@H](CCCNC(=N)N)C(=O)N[C@@H](CCCNC(N)=O)C(=O)N2 [compound 57] (cyclo(YR[Cit]CRG[dP]RR[2Nal]CYRK[dP]P); disulfide 4-11)	33
N=C(N)NCCC[C@@H]1NC(=O)[C@@H]2CSSC[C@H](NC(=O)[C@H](Cc3c[nH]c4ccccc34)NC(=O)[C@H](CCCNC(=N)N)NC(=O)[C@H](CCCNC(=N)N)NC(=O)[C@H]3CCCN3C(=O)CNC1=O)C(=O)N[C@@H](Cc1ccc(O)cc1)C(=O)N[C@@H](CCCNC(N)=O)C(=O)N[C@@H](CCCCN)C(=O)N1CCC[C@@H]1C(=O)N1CCC[C@H]1C(=O)N[C@@H](Cc1ccc(O)cc1)C(=O)N[C@@H](Cc1c[nH]cn1)C(=O)N[C@@H](CCCNC(N)=O)C(=O)N2 [Ex. 105] (cyclo(YH[Cit]CRG[dP]RRWCY[Cit]K[dP]P); disulfide 4-11)	49
CSCC[C@@H]1NC(=O)[C@H](Cc2ccc(O)cc2)NC(=O)[C@@H]2CSSC[C@H](NC(=O)[C@H](CCCNC(N)=O)NC(=O)[C@H](CCCNC(=N)N)NC(=O)[C@H](Cc3ccc(O)cc3)NC(=O)[C@@H]3CCCN3C(=O)[C@H]3CCCN3C(=O)[C@H](CCCCN)NC1=O)C(=O)N[C@@H](CCCNC(=N)N)C(=O)NCC(=O)N1CCC[C@@H]1C(=O)N[C@@H](CCCNC(=N)N)C(=O)N[C@@H](CCCNC(=N)N)C(=O)N[C@@H](Cc1ccc3ccccc3c1)C(=O)N2 [Ex. 83] (cyclo(YR[Cit]CRG[dP]RR[2Nal]CYMK[dP]P); disulfide 4-11)	48

Sourced from patent US8895695B2
